Target: T1, monkey GPC3-His protein (monkey)
T1 construct: Bought protein; also called monkey GPC3 protein
Experiment: ELISA, monkey GPC3-His coated; antibody 0.0008 nM
Threshold rule: OD450 nm greater than or equal to 0.1 is TRUE; below that, FALSE.

Q: Is the recorded value of OD450 nm equal to or greater than 0.1 for this binder? hAb001H2L1 (antibody, human IgG1, V domains shown, Humanized F2.169.2, H2+L1) VH: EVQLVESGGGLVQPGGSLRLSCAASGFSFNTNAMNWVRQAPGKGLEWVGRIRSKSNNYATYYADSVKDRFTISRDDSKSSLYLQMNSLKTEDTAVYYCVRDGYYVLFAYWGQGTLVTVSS VL: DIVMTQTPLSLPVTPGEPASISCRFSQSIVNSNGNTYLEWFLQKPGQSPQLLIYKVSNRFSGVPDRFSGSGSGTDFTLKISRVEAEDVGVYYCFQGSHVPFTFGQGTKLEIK
A: TRUE

Q: Now the binder hAb001H1aL1b (antibody, human IgG1, V domains shown, Humanized F2.169.2, H1a+L1b) VH: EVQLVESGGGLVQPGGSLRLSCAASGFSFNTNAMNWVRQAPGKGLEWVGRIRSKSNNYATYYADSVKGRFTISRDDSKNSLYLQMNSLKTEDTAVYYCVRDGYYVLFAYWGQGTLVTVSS VL: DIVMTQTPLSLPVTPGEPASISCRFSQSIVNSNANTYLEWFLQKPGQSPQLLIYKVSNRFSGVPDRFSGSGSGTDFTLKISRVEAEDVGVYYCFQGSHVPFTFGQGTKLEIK
A: TRUE

Q: Now the binder hAb005LH1L1b (antibody, human IgG1, V domains shown, Humanized F3.54.12, H1+L1b) VH: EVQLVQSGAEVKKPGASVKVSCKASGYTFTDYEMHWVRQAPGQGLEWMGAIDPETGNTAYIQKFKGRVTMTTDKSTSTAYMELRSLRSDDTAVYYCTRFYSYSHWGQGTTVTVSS VL: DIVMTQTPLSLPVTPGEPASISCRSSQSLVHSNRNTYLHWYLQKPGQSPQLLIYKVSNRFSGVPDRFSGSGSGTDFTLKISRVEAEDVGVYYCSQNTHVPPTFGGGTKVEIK
A: TRUE

Q: Now the binder hAb001H1aL1 (antibody, human IgG1, V domains shown, Humanized F2.169.2, H1a+L1) VH: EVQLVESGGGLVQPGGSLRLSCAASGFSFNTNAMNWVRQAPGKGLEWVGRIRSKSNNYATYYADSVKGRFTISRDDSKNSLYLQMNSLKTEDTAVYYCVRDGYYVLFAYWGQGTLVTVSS VL: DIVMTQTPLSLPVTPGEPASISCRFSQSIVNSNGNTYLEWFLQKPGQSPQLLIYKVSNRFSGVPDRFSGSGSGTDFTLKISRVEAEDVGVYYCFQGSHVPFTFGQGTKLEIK
A: TRUE

Q: Now the binder hAb001H1aL1a (antibody, human IgG1, V domains shown, Humanized F2.169.2, H1a+L1a) VH: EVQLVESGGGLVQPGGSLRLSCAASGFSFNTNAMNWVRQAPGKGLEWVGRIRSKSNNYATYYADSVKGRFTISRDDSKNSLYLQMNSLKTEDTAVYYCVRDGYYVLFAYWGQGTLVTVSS VL: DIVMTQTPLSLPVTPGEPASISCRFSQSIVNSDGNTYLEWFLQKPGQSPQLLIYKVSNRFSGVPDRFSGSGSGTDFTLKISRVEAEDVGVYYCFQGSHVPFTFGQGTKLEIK
A: FALSE

Where these numbers come from: patent US20260116991A1
